Biological target: soluble HLA-E-VL9, HLA-E*01:03 heavy chain refolded with β2-microglobulin and synthetic VL9 peptide (Homo sapiens, HLA-E*01:03, strain)
MEASUREMENT LABEL: binding result

[[record]]
binder = "CA124 (antibody, V domains shown) VH: QVQLVESGGGLVKPGGSLRLSCAASGFTFSDYYMSWIRQAPGKGLEWVSYISSSGSTIYYADSVKGRFTISRDNAKNSLYLQMNSLRAEDTAVYYCASGFSSWGADDYWGQGTLVTVSS VL: HPDDPVSSSLSASVGDRVTITCRASQGISNYLAWFQQKPGKAPKSLIYAASSLQSGVPSKFSGSGSGTDFTLTISSLQPEDFATYYCQQYNSYPLTFGQGTKLEIK"
measurement_label = "binding result"
reported_result = "binds"

[[record]]
binder = "CA170 (antibody, V domains shown) VH: EVQLVESGGGLVKPGGSLRLSCAASGFTFSSYSMNWVRQAPGKGLEWVSSISSSSSYIYYADSVKGRFTISRDNAKNSLYLQMNSLRAEDTAVYYCARDRDLLDAFDIWGQGTMVTVSS VL: SYVLTQPPSVSVAPGQTARITCGGNNIGSKSVHWYQQKPGQAPVLVVYDDSDRPSGIPERFSGSNSGNTATLTISRVEAGDEADYYCQVWDSSSDHPWVFGGGTKLTVL"
measurement_label = "binding result"
reported_result = "binds"

[[record]]
binder = "CA168 (antibody, V domains shown) VH: QVQLVQSGAEVKKPGSSVKVSCKASGGTFSSYAISWVRQAPGQGLEWMGGIIPIFGTANYAQKFQGRVTITADKSTSTAYMELSSLRSEDTAVYYCARALTYYDFPDYGMDVWGQGTTVTVSS VL: QSALTQPPSASGSPGQSVTISCTGTSSDVGGYNYVSWYQQHPGKVPKLMIYEVTKRPSGVPDRFSGSKSGNTASLTVSGLQAEDEADYYCSSYAGSNNLVFGGGTKLTVL"
measurement_label = "binding result"
reported_result = "binds"

